Test system: CCRF-CEM leukemia
Assay: NCI-60 one-dose screen, 48 h
Conditions: 10 µM
Compounds without any hit were thinned out: in the full panel of roughly 83,000, 20% have a hit. Calls of active or inactive are those of the source. Rule for the calls: active = growth percent below 10; inactive = the rest.
Give your call using only these classes: y = active, n = inactive

Consider the worked cases shown below.
**Query** Please share the test call associated with O=C(O)CC1Cc2ccccc2C1C(=O)O (stereo not given) .
**Result** n

**Query** Would you kindly repeat that for `CCCCCCCCCCCCc1ccc([N+](CC)(CC)CC)cc1` ?
**Result** n

**Query** Would you kindly repeat that for `CCc1ccc(C(=Nc2ccc(N(C)C(=O)CN3CCN(C)CC3)cc2)c2c(O)[nH]c3ccc(C(=O)OC)cc23)cc1` ?
**Result** y

**Query** Would you kindly repeat that for `Brc1c(-c2ccncc2)nc2n1CCS2` ?
**Result** y

**Query** Would you kindly repeat that for `COc1ccc(CN2C(=O)/C(=C\C(=O)c3ccc(OCCN4CCCCC4)cc3)c3ccccc32)cc1` ?
**Result** y

Further cases:
**Query** Please share the test call associated with COc1cc2c(c(OC)c1OC)C(=O)CC(c1cccc(C(=O)Nc3cccc(Br)c3)c1)O2 (stereo not given) .
**Result** n

**Query** Would you kindly repeat that for CCCCCN1CCN(C(CC(=O)c2ccccc2)C(=O)c2ccccc2)CC1 (stereo not given) ?
**Result** y
